Attribution: patent US20260234157A1

TESTED_TARGET: AR protein (Homo sapiens, UniProt P10275, T878A)
Construct: degradation activity of the compounds disclosed in the present disclosure on AR protein in LNCaP cells; host or cells: LNCaP FGC
Sequence (P10275 whole entry T878A): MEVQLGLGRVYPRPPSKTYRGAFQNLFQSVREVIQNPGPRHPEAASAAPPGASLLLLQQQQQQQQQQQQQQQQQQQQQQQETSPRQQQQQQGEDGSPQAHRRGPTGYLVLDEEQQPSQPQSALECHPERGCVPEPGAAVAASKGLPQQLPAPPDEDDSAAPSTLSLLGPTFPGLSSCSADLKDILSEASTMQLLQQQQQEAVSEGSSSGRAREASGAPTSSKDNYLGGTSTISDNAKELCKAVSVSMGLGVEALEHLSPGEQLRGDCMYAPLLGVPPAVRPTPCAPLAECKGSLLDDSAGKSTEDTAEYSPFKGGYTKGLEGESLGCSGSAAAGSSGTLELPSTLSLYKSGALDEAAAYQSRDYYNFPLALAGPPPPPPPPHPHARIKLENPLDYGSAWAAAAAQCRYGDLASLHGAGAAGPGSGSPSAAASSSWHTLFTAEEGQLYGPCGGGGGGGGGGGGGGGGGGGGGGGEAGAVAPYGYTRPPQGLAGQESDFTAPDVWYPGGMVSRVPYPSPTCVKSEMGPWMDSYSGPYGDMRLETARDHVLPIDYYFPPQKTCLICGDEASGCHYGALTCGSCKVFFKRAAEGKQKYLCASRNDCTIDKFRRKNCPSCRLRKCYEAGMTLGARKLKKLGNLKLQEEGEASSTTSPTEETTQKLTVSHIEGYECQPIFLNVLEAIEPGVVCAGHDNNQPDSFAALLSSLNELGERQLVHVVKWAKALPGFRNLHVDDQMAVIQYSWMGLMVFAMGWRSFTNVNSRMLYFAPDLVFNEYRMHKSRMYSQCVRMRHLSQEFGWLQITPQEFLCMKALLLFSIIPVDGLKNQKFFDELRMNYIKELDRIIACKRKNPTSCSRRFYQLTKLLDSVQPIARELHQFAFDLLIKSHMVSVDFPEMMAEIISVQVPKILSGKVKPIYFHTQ
TEST_METHOD_NOTES: Degradation of AR protein in LNCaP cells (Western blot)
Type: cell-based
PARTICULARS: LNCaP cells, compound 100 nM, 8 hours, Western blot grayscale, GAPDH internal reference; read-out: Degradation rates of the AR protein in LNCaP cells, 100 nM (%)
Decide using inhibition at 0.1 µM: a value greater than or equal to 60% is 1.0, a smaller one is 0.0.

COMPOUND | ASSIGNED_CATEGORY
N#Cc1ccc(O[C@H]2CC[C@H](NC(=O)c3ccc(C#CC4CC5(C4)CC(N4CCC6(CC4)COc4c6ccc6c4CN(C4CCC(=O)NC4=O)C6=O)C5)nn3)CC2)cc1Cl (some centres unmarked) [Compound 252] | 1.0
CCOC1(CN2CCC3(CC2)COc2c3ccc3c2C(=O)N(C2CCC(=O)NC2=O)C3=O)CCN(c2ccc(C(=O)N[C@H]3CC[C@H](Oc4ccc(C#N)c(Cl)c4)CC3)nn2)CC1 (some centres unmarked) [Compound 244] | 1.0
N#Cc1ccc(O[C@H]2CC[C@H](NC(=O)c3ccc(N4CCC5(CC4)COc4c5ccc5c4CN(C4CCC(=O)NC4=O)C5=O)nn3)CC2)cc1Cl (some centres unmarked) [Compound 200] | 0.0
CC1(CN2CCC3(CC2)COc2c3ccc3c2CN(C2CCC(=O)NC2=O)C3=O)CCN(c2ncc(C(=O)N[C@H]3CC[C@H](Oc4ccc(C#N)c(Cl)c4)CC3)cn2)CC1 (some centres unmarked) [Compound 193] | 0.0

Test whether the compound N#Cc1ccc(O[C@H]2CC[C@H](NC(=O)c3ccc(N4CCC(CN5CCC6(CC5)COc5cc7c(cc5C6)C(=O)N(C5CCC(=O)NC5=O)C7=O)CC4)nn3)CC2)cc1Cl (some centres unmarked) [Compound 72] records inhibition at 0.1 µM of 60% or higher.
1.0

Test whether the compound N#Cc1ccc(O[C@H]2CC[C@H](NC(=O)c3ccc(N4CCN(CC(=O)N5CCC6(CC5)COc5c6ccc6c5CN(C5CCC(=O)NC5=O)C6=O)CC4)nn3)CC2)cc1Cl (some centres unmarked) [Compound 241] records inhibition at 0.1 µM of 60% or higher.
1.0

Test whether the compound N#Cc1ccc(O[C@H]2CC[C@H](NC(=O)c3ccc(N4CCC5(CC4)CC(N4CCC6(CC4)COc4c6ccc6c4CN(C4CCC(=O)NC4=O)C6=O)C5)nn3)CC2)cc1Cl (some centres unmarked) [Compound 184] records inhibition at 0.1 µM of 60% or higher.
0.0

Test whether the compound N#Cc1ccc(O[C@H]2CC[C@H](NC(=O)c3ccc(N4CCC5(CC4)CC(C(=O)N4CCC6(CC4)COc4c6ccc6c4CN(C4CCC(=O)NC4=O)C6=O)C5)nn3)CC2)cc1Cl (some centres unmarked) [Compound 254] records inhibition at 0.1 µM of 60% or higher.
0.0

Test whether the compound N#Cc1ccc(O[C@H]2CC[C@H](NC(=O)c3ccc(N4CCC5(CC4)COc4cc6c(cc45)C(=O)N(C4CCC(=O)NC4=O)C6=O)nn3)CC2)cc1Cl (some centres unmarked) [Compound 52] records inhibition at 0.1 µM of 60% or higher.
0.0

Test whether the compound N#Cc1ccc(O[C@H]2CC[C@H](NC(=O)c3ccc(N4CCC(F)(CN5CCC6(CC5)COc5c6ccc6c5CN(C5CCC(=O)NC5=O)C6=O)CC4)cn3)CC2)cc1Cl (some centres unmarked) [Compound 260] records inhibition at 0.1 µM of 60% or higher.
0.0

Test whether the compound CCOC1(CN2CCC3(CC2)COc2c3ccc3c2C(=O)N(C2CCC(=O)NC2=O)C3=O)CCN(c2ccc(C(=O)N[C@H]3C(C)(C)[C@H](Oc4ccc(C#N)c(OC)c4)C3(C)C)cc2)CC1 (some centres unmarked) [Compound 295] records inhibition at 0.1 µM of 60% or higher.
0.0
